- Tested on: KB
- experiment: Cytotoxicity against human KB cells after 48 hrs by MTT assay
IC50 under 20 µg/mL gets Fulfilled, anything at or over 20 µg/mL gets Not fulfilled.

structure_smiles: C=C[C@@H]1CC[C@@H]2[C@]3(CC[C@]4(C)[C@@H]([C@H](C)[C@H]5CC=C(C)C(=O)O5)CC[C@@]24C)C[C@]13CCC(=O)OC
class_label: Not fulfilled

structure_smiles: C=C[C@@H]1CC[C@@H]2[C@]3(CC[C@]4(C)[C@@H]([C@H](C)[C@H]5CC=C(C)C(=O)O5)CC[C@@]24C)C[C@]13CCC(=O)O
class_label: Not fulfilled

structure_smiles: COC(=O)[C@@H](C)[C@@H]1CC[C@@H]2[C@]3(CC[C@]4(C)[C@@H]([C@H](C)CC/C=C(/C)C(=O)O)CC[C@@]24C)C[C@]13CCOC(C)=O
class_label: Fulfilled

structure_smiles: C/C(=C\CC[C@@H](C)[C@H]1CC[C@@]2(C)[C@@H]3CC[C@H]4[C@H](C)C(=O)CC[C@@]45C[C@@]35CC[C@]12C)C(=O)O
class_label: Fulfilled
